target: Mcl-1/Bim interaction, recombinant human Mcl-1 (171-327) (Homo sapiens, UniProt Q07820); construct: made in house; assay: Cell free Mcl-1: Bim Affinity Assay (Mcl-1 HTRF); format: binding; settings: cell free Mcl-1:Bim TR-FRET, recombinant human Mcl-1 (171-327)
Sequence (Q07820 171-327): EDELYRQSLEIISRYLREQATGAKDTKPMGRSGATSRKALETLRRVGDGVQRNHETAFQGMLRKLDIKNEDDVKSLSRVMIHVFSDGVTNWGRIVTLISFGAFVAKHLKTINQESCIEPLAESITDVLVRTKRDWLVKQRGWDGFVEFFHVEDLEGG
Some molecules, each annotated with its measured pIC50.
Note on units: pIC50 is unitless, being -log10 of a concentration expressed in mol/L.

Examples from the recorded data:
CO[C@H]1/C=C/CCC(CCC(=O)N(C)C)S(=O)(=O)NC(=O)c2ccc3c(c2)N(C[C@@H]2CC[C@H]21)C[C@@]1(CCCc2cc(Cl)ccc21)CO3 (single isomer, unassigned) [Example 622]: 9.65
O=C1NS(=O)(=O)CCCCC[C@@H](CO)[C@@H]2CC[C@H]2CN2C[C@@]3(CCCc4cc(Cl)ccc43)COc3ccc1cc32 (single isomer, unassigned) [Example 906]: 8.04
CO[C@H]1/C=C/CC[C@@H](CCO)S(=O)(=O)NC(=O)c2ccc3c(c2)N(C[C@@H]2CC[C@H]21)C[C@@]1(CCCc2cc(Cl)ccc21)CO3 (single isomer, unassigned) [Example 617]: 9.66
N#CCC[C@H]1CC/C=C/[C@H](O)[C@@H]2CC[C@H]2CN2C[C@@]3(CCCc4cc(Cl)ccc43)COc3ccc(cc32)C(=O)NS1(=O)=O (single isomer, unassigned) [Example 614]: 8.95
COC(C)CC1CCC=CC(OC)C2CCC2CN2CC3(CCCc4cc(Cl)ccc43)COc3ccc(cc32)C(=O)NS1(=O)=O (single isomer, unassigned) [Example 552]: 9.32

Value of measured pIC50 for the entry CC1(C)C/C=C/[C@H](O)[C@@H]2CC[C@H]2CN2C[C@@]3(CCCc4cc(Cl)ccc43)COc3ccc(cc32)C(=O)NS1(=O)=O [Example 769] : 9.01

Sample CC1(C)CCC[C@H](O)[C@@H]2CC[C@H]2CN2C[C@@]3(CCCc4cc(Cl)ccc43)COc3ccc(cc32)C(=O)NS1(=O)=O [Example 770] ; pIC50 observed: 8.87

The reported pIC50 of the molecule O=C1NS(=O)(=O)CCCCC[C@@H](NCC(F)(F)F)[C@@H]2CC[C@H]2CN2C[C@@]3(CCCc4cc(Cl)ccc43)COc3ccc1cc32 (single isomer, unassigned) [Example 930] was 7.71

Measured pIC50, C[C@@H]1[C@@H](C)C/C=C/[C@H](OCCNC2COC2)[C@@H]2CC[C@H]2CN2C[C@@]3(CCCc4cc(Cl)ccc43)COc3ccc(cc32)C(=O)NS1(=O)=O [Example 522] : 9.55

For record C[C@@H]1[C@@H](C)C/C=C/[C@H](OCCO)[C@@H]2CC[C@H]2CN2C[C@@]3(CCCc4cc(Cl)ccc43)COc3ccc(cc32)C(=O)NS1(=O)=O [Example 516] the listed pIC50 is 9.57

Documented pIC50 of O=C1NS(=O)(=O)CC/C=C\C[C@@H](O)[C@@H]2CC[C@H]2CN2C[C@@]3(CCCc4cc(Cl)ccc43)COc3ccc1cc32 (single isomer, unassigned) [Example 845] : 8.36

====

Readings of pIC50 for the listed compounds
target: Mcl-1/Bim interaction, recombinant human Mcl-1 (171-327) (Homo sapiens); construct: made in house; experiment: Cell free Mcl-1: Bim Affinity Assay (Mcl-1 HTRF); assay type: binding; settings: cell free Mcl-1:Bim TR-FRET, recombinant human Mcl-1 (171-327)
Note on units: pIC50 is unitless, being -log10 of a concentration expressed in mol/L.

Please review the entries below; each comes with its answer.
O=C1NS(=O)(=O)CC/C=C/C[C@H](O)[C@@H]2CC[C@H]2CN2C[C@@]3(CCCc4cc(Cl)ccc43)COc3ccc1cc32 (single isomer, unassigned) [Example 846]: 8.66
C[C@@H]1C[C@@H]2C[C@@H](O1)[C@@H]1CC[C@H]1CN1C[C@@]3(CCCc4cc(Cl)ccc43)COc3ccc(cc31)C(=O)NS(=O)(=O)CCO2 (single isomer, unassigned) [Example 876]: 7.74
COC(=O)CN(CC(=O)OC)[C@H]1/C=C/CC[C@@H](C)S(=O)(=O)NC(=O)c2ccc3c(c2)N(C[C@@H]2CC[C@H]21)C[C@@]1(CCCc2cc(Cl)ccc21)CO3 [Example 600]: 9.19
O=C1NS(=O)(=O)CCCCC(O)CC2CCC2CN2CC3(CCCc4cc(Cl)ccc43)COc3ccc1cc32 (single isomer, unassigned) [Example 881]: 7.65

Turning now to a further record.
Let me check: O=C1NS(=O)(=O)CC/C=C\CC[C@@H]2CC[C@H]2CN2C[C@@]3(CCCc4cc(Cl)ccc43)COc3ccc1cc32 [Example 499] , system Mcl-1/Bim interaction, recombinant human Mcl-1 (171-327) (Homo sapiens), measured pIC50 is 7.62
